The measured values listed here are drawn from ChEMBL document CHEMBL3621195.

tested on: HepG2; assay: Induction of apoptosis in human HepG2 cells incubated for 24 hrs by Annexin V-FITC and propidium iodide staining based microcapillary flow cytometry; assay type: functional, cell-based; settings: HepG2, 24 h
pEC50 by entry:
Field pEC50 (float): negative decimal logarithm of the concentration in molar.

COc1ccc2[nH]c(C(=O)Nc3cccc(-c4c[nH]c(N)n4)c3)cc2c1.Cl
4.74
Cl.Nc1nc(-c2cccc(NC(=O)c3cc4cc(F)ccc4[nH]3)c2)c[nH]1
4.89

Look up pEC50 with HepG2 for this compound: `CNc1nc(-c2cccc(NC(=O)c3cc4ccccc4[nH]3)c2)c[nH]1.Cl` 4.70

Requested read-out pEC50, target or system HepG2, entry `Cl.Nc1nc(-c2cccc(NC(=O)c3cc4cc(Cl)ccc4[nH]3)c2)c[nH]1` 4.80

Requested read-out pEC50, target or system HepG2, entry `Cl.Nc1nc(-c2cccc(NC(=O)c3cc4sccc4[nH]3)c2)c[nH]1` 4.38
